Measured values drawn from PubChem BioAssay (NCATS) for this set.

experiment: Quantitative High-Throughput drug screen in 47 multiple myeloma cell lines against the NCATS MIPE library collection: L363_DSMZ cell viability assay (AID 1918984); conditions: L363 myeloma viability, CellTiter-Glo ATP luminescence, 48 h; series mostly up to 45.8 µM; further: nearly all actives have a fitted effect of over 40% in size; further: potency means the concentration at half of the fitted maximal effect
Inconclusive results are not listed. Active and inactive are the calls of the source. The call rests on the fitted dose curve; in most records, active means well fitted cell-killing curve with a large enough effect; inconclusive means small, poorly fitted or top-dose-only effect, or effect the other way; inactive means no such curve, though single readings can be large or run the other way.
ENDPOINT_LABEL: Potency

Some entries whose results are on file:
[[record]]
compound = "c1ccc(CNc2nc(NCc3ccccc3)c3ccccc3n2)cc1"
endpoint_label = "Potency"
measured = "5.26 µM (active)"

[[record]]
compound = "CN(N=O)C(=O)N[C@H]1C(O)OC(CO)[C@@H](O)[C@H]1O (stereo not given in full)"
endpoint_label = "Potency"
measured = "inactive"

[[record]]
compound = "CCN(C(=O)c1c(O)c2c(Cl)cccc2n(C)c1=O)c1ccccc1"
endpoint_label = "Potency"
measured = "inactive"

[[record]]
compound = "CN(C)c1ccc2cc(C(=O)N[C@@H](CCCN=C(N)CCl)C(=O)NCc3ccccc3)ccc2c1"
endpoint_label = "Potency"
measured = "6.62 µM (active)"

[[record]]
compound = "O=C(O)CCCCC(CCSCc1ccccc1)SCc1ccccc1 (stereo not given)"
endpoint_label = "Potency"
measured = "13.2 µM (active)"

[[record]]
compound = "CN(C)CCN1C(=O)c2cccc3cc(N)cc(c23)C1=O"
endpoint_label = "Potency"
measured = "16.6 µM (active)"

[[record]]
compound = "CCOC(=O)N1CCN([N+]([O-])=NOc2ccc([N+](=O)[O-])cc2C#N)CC1"
endpoint_label = "Potency"
measured = "0.59 µM (active)"

[[record]]
compound = "Cn1cc(CNCC2CCN(c3ncc(C(=O)NO)cn3)CC2)c2ccccc21"
endpoint_label = "Potency"
measured = "0.0264 µM (active)"


Query :: Please report the recorded Potency for "CCC[C@H]1C[C@H](C(=O)N[C@@H]([C@@H]2O[C@@H](SC)[C@@H](O)[C@@H](O)[C@@H]2O)[C@H](C)Cl)N(C)C1" .
Result :: inactive

Query :: Could you do the same for "COc1cc(OC)c(C=CS(=O)(=O)Cc2ccc(OC)c(NCC(=O)O)c2)c(OC)c1" , please?
Result :: 0.0469 µM (active)

* * *

assay: qHTS of pediatric cancer cell lines to identify multiple opportunities for drug repurposing: Confirmatory screen for BT-12 cells (AID 1347112); details: BT-12 rhabdoid tumor cells, viability; series mostly up to 45.9 µM;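 further: viability read after 48 h of compound exposure; nearly all actives have a fitted effect of over 55% in size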
Results filed as inconclusive are left out. Active and inactive are the calls of the source. Calls follow the shape of the dose curve; as a rule, active = well fitted cell-killing curve with a large enough effect; inconclusive = small, poorly fitted or top-dose-only effect; inactive = flat fitted curve, though single readings scatter.
Give one outcome, nothing more. List: y for active, n for inactive

Field: example entries. Status: answers known.
[[record]]
molecule = "Cn1cc(-c2cnn3c(N)c(Br)c([C@H]4CCCNC4)nc23)cn1"
discrete_label = "n"

[[record]]
molecule = "Cc1ccc([N+](=O)[O-])cc1S(=O)(=O)N(C)N=Cc1cnc2ccc(Br)cn12"
discrete_label = "y"

[[record]]
molecule = "COc1cc(C[C@@H](CO)[C@H](CO)Cc2ccc(O)c(OC)c2)ccc1O"
discrete_label = "n"

[[record]]
molecule = "Oc1ccc(-c2ccc(-c3cc(Nc4cccc(CNC5CC5)c4)n[nH]3)cc2)c(O)c1"
discrete_label = "y"

[[record]]
molecule = "O=C(Nc1cc2cc[nH]c2cn1)c1ccccc1"
discrete_label = "y"


Query :: Record request — test call for "Nc1nc2c(c(=O)[nH]1)N(C=O)[C@H](CNc1ccc(C(=O)N[C@@H](CCC(=O)O)C(=O)O)cc1)CN2"
Result :: n

Query :: Could you do the same for COc1ccc2c(c1OC)C(=O)OC2[C@H]1c2c(cc3c(c2OC)OCO3)CCN1C (stereo not given in full) , please?
Result :: n

Query :: Could you do the same for "COc1cc([C@@H]2c3cc4c(cc3[C@H](O)[C@H]3COC(=O)[C@@H]23)OCO4)cc(OC)c1OC" , please?
Result :: y

Query :: Could you do the same for "COc1ccc(C=Cc2cc(OC)c(OC)c(OC)c2)cc1NC(=O)[C@H](N)CO" , please?
Result :: y

Query :: Could you do the same for "N#Cc1c(NC(=O)c2cccc3ccccc23)sc2c1CCCC2" , please?
Result :: y
